Where these numbers come from: patent US20180273635A1

Measured SPR Ka, mut/Ka, WT values are reported for all entries that follow.
# Test System: T1, Recombinant human HER2 (human, UniProt P04626 23-652)
# T1 construct: extracellular domain; Analyte of the SPR assays; also called HER2 ECD; ECD2 of HER2
# Assay Text: SPR, Ka ratio to WT pertuzumab
Answer in fold, number only, no unit symbol.

Given the entry Variant 4431 (antibody, name in Kabat numbering, V domains shown, also called literature pertuzumab variant) VH: EVQLVESGGGLVQPGGSLRLSCAASGFTFTDYTMDWVRQAPGKGLEWVADVNPNSGGSIYNQRFKGRFTLSVDRSKNTLYLQMNSLRAEDTAVYYCARNLGPSFYFDYWGQGTLVTVSS VL: DIQMTQSPSSLSASVGDRVTITCKASQDVSAGVAWYQQKPGKAPKLLIYSASYRYTGVPSRFSGSGSGTDFTLTISSLQPEDFATYYCQQYYIYPYTFGQGTKVEIK , report its measured SPR Ka, mut/Ka, WT.
3.9

Given the entry Variant 4435 (antibody, V domains shown, also called literature pertuzumab variant) VH: EVQLVESGGGLVQPGGSLRLSCAASGFTFTDYTMDWVRQAPGKGLEWVADVNPNSGASIYNQRFKGRFTLSVDRSKNTLYLQMNSLRAEDTAVYYCARNLGPSFYFDYWGQGTLVTVSS VL: DIQMTQSPSSLSASVGDRVTITCKASQDVSIGVAWYQQKPGKAPKLLIYSASYRYTGVPSRFSGSGSGTDFTLTISSLQPEDFATYYCQQYYIYPYTFGQGTKVEIK , report its measured SPR Ka, mut/Ka, WT.
0.9

Given the entry Variant 4436 (antibody, name in Kabat numbering, V domains shown, also called literature pertuzumab variant) VH: EVQLVESGGGLVQPGGSLRLSCAASGFTFTDYTMDWVRQAPGKGLEWVADVNPNSGGSIYNQRVKGRFTLSVDRSKNTLYLQMNSLRAEDTAVYYCARNLGPSFYFDYWGQGTLVTVSS VL: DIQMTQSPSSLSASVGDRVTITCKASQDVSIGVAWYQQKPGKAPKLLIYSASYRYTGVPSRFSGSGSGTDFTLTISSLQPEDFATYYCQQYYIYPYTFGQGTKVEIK , report its measured SPR Ka, mut/Ka, WT.
2.4
